# Organism: Rattus norvegicus
# assay: Suppression of estrus cyclicity in rat relative to [D-Trp6, ProNHEt9].
# Format: functional
What Potency was measured for each of the following?
One number for each entry.

| compound | recorded.endpoint | numeric.readout |
| --- | --- | --- |
| CC(C)C[C@H](NC(=O)[C@@H](CC1CCCCC1)NC(=O)[C@H](Cc1ccc(O)cc1)NC(=O)[C@H](CO)NC(=O)[C@H](Cc1c[nH]c2ccccc12)NC(=O)[C@H](Cc1c[nH]cn1)NC(=O)[C@@H]1CCC(=O)N1)C(=O)N[C@@H](CCCN=C(N)N)C(=O)N1CCC[C@H]1C(=O)NCC(N)=O | Potency | 0.5 |

I am curious: what Potency value has been reported for CCNC(=O)[C@@H]1CCCN1C(=O)[C@H](CCCN=C(N)N)NC(=O)[C@H](CC(C)C)N(C)C(=O)[C@@H](Cc1ccc2ccccc2c1)NC(=O)[C@H](Cc1ccc(O)cc1)NC(=O)[C@H](CO)NC(=O)[C@H](Cc1c[nH]c2ccccc12)NC(=O)[C@H](Cc1c[nH]cn1)NC(=O)[C@@H]1CCC(=O)N1 ?
1.8

Provenance of the data: ChEMBL document CHEMBL1122089
